# Procedure details: MTT in vitro cytotoxicity assay, HL-7702 normal cells
# Type: cell-based
# Condition info: human, HL-7702 normal liver cells, mean ± SD

Compound: CNC(=O)c1cc(Cl)cc(C)c1NC(=O)c1cccnc1Nc1cccc(C(F)(F)F)c1
IC50: > 40 mg/L
//
Compound: NC(=O)c1cccnc1NC(=O)c1ccccc1Nc1cccc(C(F)(F)F)c1
IC50: > 40 mg/L
//
Compound: CNC(=O)c1cc2ccccc2cc1NC(=O)c1cccnc1Nc1cccc(C(F)(F)F)c1
IC50: > 40 mg/L
//
Compound: CNC(=O)c1cc2ccccc2cc1NC(=O)c1ccccc1Nc1cccc(C(F)(F)F)c1
IC50: > 40 mg/L
//
Compound: Cc1cc(Cl)cc(C(N)=O)c1NC(=O)c1ccccc1Nc1cccc(C(F)(F)F)c1
IC50: > 40 mg/L
//
Compound: O=c1[nH]cc(F)c(=O)[nH]1 [5-FU, 5-Fluorouracil, reference compound]
IC50: 11.3 mg/L
//
Compound: CNC(=O)c1cccnc1NC(=O)c1cccnc1Nc1cccc(C(F)(F)F)c1
IC50: 11.6 mg/L

----------
Reported IC50 values for the following compounds.
# Procedure details: MTT in vitro cytotoxicity assay, HL-7702 normal cells
# Assay type: cell-based
# Condition info: human, HL-7702 normal liver cells, mean ± SD
Recorded endpoint: IC50

Compound: NC(=O)c1cc2ccccc2cc1NC(=O)c1ccccc1Nc1cccc(C(F)(F)F)c1
Recorded endpoint: IC50
Measured value: > 40 µg/mL

Compound: CNC(=O)c1cc(Cl)cc(C)c1NC(=O)c1ccccc1Nc1cccc(C(F)(F)F)c1
Recorded endpoint: IC50
Measured value: 21.4 µg/mL

Compound: NC(=O)c1cccnc1NC(=O)c1cccnc1Nc1cccc(C(F)(F)F)c1
Recorded endpoint: IC50
Measured value: 9.86 µg/mL

Compound: CNC(=O)c1cccnc1NC(=O)c1ccccc1Nc1cccc(C(F)(F)F)c1
Recorded endpoint: IC50
Measured value: > 40 µg/mL

Compound: CC(O)CNC(=O)c1cccnc1NC(=O)c1cccnc1Nc1cccc(C(F)(F)F)c1 (stereo not drawn)
Recorded endpoint: IC50
Measured value: 14.5 µg/mL

Compound: CC(O)CNC(=O)c1cccnc1NC(=O)c1ccccc1Nc1cccc(C(F)(F)F)c1 (stereo not drawn)
Recorded endpoint: IC50
Measured value: 19.7 µg/mL

Compound: Cc1cc(Cl)cc(C(N)=O)c1NC(=O)c1cccnc1Nc1cccc(C(F)(F)F)c1
Recorded endpoint: IC50
Measured value: > 40 µg/mL

Compound: CC(=O)CNC(=O)c1cccnc1NC(=O)c1ccccc1Nc1cccc(C(F)(F)F)c1
Recorded endpoint: IC50
Measured value: 26.9 µg/mL

Compound: NC(=O)c1cc2ccccc2cc1NC(=O)c1cccnc1Nc1cccc(C(F)(F)F)c1
Recorded endpoint: IC50
Measured value: 18.1 µg/mL

----------
# Test system: NCI-H1975 (Human lung cancer cell line)
# Procedure details: MTT in vitro cytotoxicity assay, NCI-H1975
# Type: cell-based
# Condition info: Homo sapiens; NCI-H1975 cells, MTT assay, mean ± SD
Recorded endpoint: IC50

Molecule: CNC(=O)c1cc2ccccc2cc1NC(=O)c1ccccc1Nc1cccc(C(F)(F)F)c1
Recorded endpoint: IC50
Measured value: > 40 µg/mL
--
Molecule: CNC(=O)c1cc(Cl)cc(C)c1NC(=O)c1ccccc1Nc1cccc(C(F)(F)F)c1
Recorded endpoint: IC50
Measured value: 10.8 µg/mL
--
Molecule: NC(=O)c1cccnc1NC(=O)c1ccccc1Nc1cccc(C(F)(F)F)c1
Recorded endpoint: IC50
Measured value: > 40 µg/mL
--
Molecule: Cc1cc(Cl)cc(C(N)=O)c1NC(=O)c1ccccc1Nc1cccc(C(F)(F)F)c1
Recorded endpoint: IC50
Measured value: > 40 µg/mL
--
Molecule: NC(=O)c1cccnc1NC(=O)c1cccnc1Nc1cccc(C(F)(F)F)c1
Recorded endpoint: IC50
Measured value: 10.8 µg/mL
--
Molecule: CNC(=O)c1cc2ccccc2cc1NC(=O)c1cccnc1Nc1cccc(C(F)(F)F)c1
Recorded endpoint: IC50
Measured value: > 40 µg/mL
--
Molecule: CC(=O)CNC(=O)c1cccnc1NC(=O)c1ccccc1Nc1cccc(C(F)(F)F)c1
Recorded endpoint: IC50
Measured value: 12.8 µg/mL
--
Molecule: Cc1cc(Cl)cc(C(N)=O)c1NC(=O)c1cccnc1Nc1cccc(C(F)(F)F)c1
Recorded endpoint: IC50
Measured value: > 40 µg/mL
--
Molecule: CC(O)CNC(=O)c1cccnc1NC(=O)c1ccccc1Nc1cccc(C(F)(F)F)c1 (centres unmarked)
Recorded endpoint: IC50
Measured value: 27.2 µg/mL
--
Molecule: NC(=O)c1cc2ccccc2cc1NC(=O)c1ccccc1Nc1cccc(C(F)(F)F)c1
Recorded endpoint: IC50
Measured value: > 40 µg/mL
--
Molecule: O=c1[nH]cc(F)c(=O)[nH]1 [5-FU, 5-Fluorouracil, reference compound]
Recorded endpoint: IC50
Measured value: 24.8 µg/mL
